- Test system: MARIMO
- test.description: cell viability relative to vehicle control; higher = less cytotoxic;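 note: after 48 h exposure read by CellTiter-Glo luminescence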
- test.context: 10 µM; SRSF2 genotype: SRSF2 wt/wt
Measured cell viability by item

>  <molecule>
O=C(O)c1ccc(O)cc1 [4-Hydroxybenzoic acid]

>  <tested.system>
MARIMO

>  <cell viability (%)>
97.5

$$$$
>  <molecule>
N#CC(=Cc1ccc(O)c(O)c1)C(=O)NCc1ccccc1

>  <tested.system>
MARIMO

>  <cell viability (%)>
92.8

$$$$
>  <molecule>
COc1cc(C[C@@H](CO[C@@H]2O[C@H](CO)[C@@H](O)[C@H](O)[C@H]2O)[C@H](CO[C@@H]2O[C@H](CO)[C@@H](O)[C@H](O)[C@H]2O)Cc2ccc(O)c(OC)c2)ccc1O [Secoisolariciresinol diglucoside]

>  <tested.system>
MARIMO

>  <cell viability (%)>
101

$$$$
>  <molecule>
CC[C@H]1OC(=O)[C@H](C)[C@@H](O[C@H]2C[C@@](C)(OC)[C@@H](O)[C@H](C)O2)[C@H](C)[C@@H](O[C@@H]2O[C@H](C)C[C@H](N(C)C)[C@H]2O)[C@](C)(OC)C[C@@H](C)C(=O)[C@H](C)[C@@H](O)[C@]1(C)O

>  <tested.system>
MARIMO

>  <cell viability (%)>
102

$$$$
>  <molecule>
CCN(CC)c1ccc(C=NNC(=O)c2ccc(O)cc2)cc1

>  <tested.system>
MARIMO

>  <cell viability (%)>
52.2

$$$$
>  <molecule>
Nc1ccc(Cl)cc1C(=O)C(F)(F)F [4-Chloro-2-(trifluoroacetyl)aniline hydrochl]

>  <tested.system>
MARIMO

>  <cell viability (%)>
99.5

$$$$
>  <molecule>
COc1ccc(C(=O)C(=O)c2ccc(OC)cc2)cc1

>  <tested.system>
MARIMO

>  <cell viability (%)>
105

$$$$

----------
- Tested on: OCI-AML2
- test.description: cell viability relative to vehicle control; higher = less cytotoxic
- test.context: 10 µM; SRSF2 genotype: P95H/wt
Measured cell viability by item

>  <compound>
Nc1ncn([C@H]2C[C@H](O)[C@@H](CO)O2)c(=O)n1

>  <units.text>
%

>  <cell viability>
54.4

$$$$
>  <compound>
C[C@H]1COc2c(N3CCN(C)CC3)c(F)cc3c(=O)c(C(=O)O)cn1c23 [Levofloxacin (Levaquin)]

>  <units.text>
%

>  <cell viability>
87.3

$$$$
>  <compound>
CC(C)NC(=O)COc1cccc(-c2nc(Nc3ccc4[nH]ncc4c3)c3ccccc3n2)c1

>  <units.text>
%

>  <cell viability>
110

$$$$
>  <compound>
CCNC1(C(N)=O)CCN(c2ncnc3c2nc(-c2ccccc2Cl)n3-c2ccc(Cl)cc2)CC1

>  <units.text>
%

>  <cell viability>
88.2

$$$$
>  <compound>
OC[C@H]1O[C@H](O[C@H]2O[C@H](CO)[C@@H](O)[C@H](O)[C@H]2O)[C@H](O)[C@@H](O)[C@@H]1O [D-(+)-Trehalose dihydrate]

>  <units.text>
%

>  <cell viability>
105

$$$$
>  <compound>
O.O.O.O.O.O.O.[Cl][La]([Cl])[Cl] [Lanthanum(III) chloride heptahydrate]

>  <units.text>
%

>  <cell viability>
99.2

$$$$
>  <compound>
N#CN=C(NCCCCCCOc1ccc(Cl)cc1)Nc1ccncc1

>  <units.text>
%

>  <cell viability>
6.42

$$$$
>  <compound>
CN1CCN(c2ccc(OC(F)(F)F)c(Nc3ncc4c(n3)-c3c(c(C(N)=O)nn3CCO)CC4)c2)CC1

>  <units.text>
%

>  <cell viability>
14.6

$$$$
